- assayTarget: human LARP1 LaM domain (residues 323–410) (Homo sapiens)
- Construct: human LARP1 LaM domain (residues 323–410); made in house; host or cells: E. coli
- assaySummary: Isothermal titration calorimetry (ITC) of RNA ligands binding LARP1 (323-410)
- details: Figure 2B; higher = tighter binding than A6
recordedEndpoint: Rel. aff. (affinity relative to AAAAAA)

                    substance                         recordedendpoint  recordedmeasurement
0  5´-APAPAPGPAPA-3´ [AAAGAA]  Rel. aff. (affinity relative to AAAAAA)                  1.8
1  5´-APAPAPAPGPA-3´ [AAAAGA]  Rel. aff. (affinity relative to AAAAAA)                  3.2
2  5´-APAPAPAPAPG-3´ [AAAAAG]  Rel. aff. (affinity relative to AAAAAA)                  1.9
3  5´-APAPAPAPAPA-3´ [AAAAAA]  Rel. aff. (affinity relative to AAAAAA)                  1.0
